B1: HDV Ribozyme (parent)
chain: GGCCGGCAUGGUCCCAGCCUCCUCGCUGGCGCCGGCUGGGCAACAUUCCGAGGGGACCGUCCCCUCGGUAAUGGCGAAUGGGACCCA

# Variants of: B1
# procedure.details: self-cleavage, relative activity (ratio to wild type); higher = more cleavage; co-transcriptional
Each entry falls in a class defined on self-cleavage; the bands are bottom range = under 0.2, center range = from 0.2 up to 0.6, top range = 0.6 and over

| sequence.variant | class.label |
| --- | --- |
| C30A C62G | center range |
| A43U G59C | center range |
| G35A C66U | top range |
| G28A C84A | bottom range |
| C30U C66A | top range |
| U47G A77G | top range |
| G11C U20C | bottom range |
| C41U U79G | center range |
| C49U C57A | top range |
| C32G C41A | bottom range |
| A56C A78G | top range |
| C30A G38U | bottom range |
| C4A C61G | bottom range |
| C26U A51C | top range |
| G1A C63U | bottom range |
| C33A C41U | bottom range |
| C30U U79C | bottom range |
| U37C A70U | top range |
| U9G C85A | top range |
| C15G G73U | bottom range |
| C66U G81C | center range |
| C14A C84A | center range |
| G31U U46G | center range |
| G40U A42G | center range |
| G1U G67C | center range |
| A8U C66G | top range |
| G1A C44G | bottom range |
| G5A C85U | bottom range |
| G6C U60C | center range |
| C13U C21U | bottom range |
| G10U G68U | top range |
| U9G G52A | top range |
| C13A A56G | bottom range |
| G53A G76A | top range |
| G10C A83G | center range |
| U9G C22U | center range |
| C14G C26G | top range |
| G2U A45U | bottom range |
| G5U U69G | center range |
| G10C U12C | bottom range |
| C21A C61G | bottom range |
| C48A A77U | top range |
| A8C A77U | center range |
| G54U C86U | top range |
| G68C U79A | top range |
| G2C A42G | bottom range |
| C13A G17C | bottom range |
| C66G C85U | top range |
| G52A G74U | center range |
| C62G U69A | top range |
| G2U G76A | bottom range |
| C44U G54C | top range |
| G1C C84G | bottom range |
| C24A U60A | center range |
| C41A C86U | top range |
| G10A C44G | center range |
| U65A C75A | bottom range |
| U12G C58A | top range |
| C14G C64G | center range |
| C15A A45C | bottom range |
| G38U A87G | bottom range |
| G35U C49U | center range |
| A42U C86A | center range |
| G2C C33A | bottom range |
| U9C A45C | top range |
| G6A C7U | center range |
| G1A U79G | bottom range |
| G29A U47G | bottom range |
| G10A C13U | bottom range |
| C18U G67U | top range |
| C32A G74U | bottom range |
| A8G C85A | top range |
| C24G U60C | center range |
| A8C C33G | bottom range |
| G34A C58G | bottom range |
| U12G C63A | top range |
| A8U A87G | top range |
| C36G C85U | bottom range |
| C32U G73A | center range |
| C15G C61A | center range |
| U9G C62A | top range |
| G1A C66A | center range |
| G31U C36U | bottom range |
| G2A G73U | bottom range |
| G59U A87U | top range |
| C26U C84G | top range |
| C19A G80U | bottom range |
| G2A C49U | center range |
